Tested on: Klebsiella pneumoniae
Method Description: Antibacterial activity against Klebsiella pneumoniae ATCC 10031 assessed as inhibition of bacterial growth by broth microdilution method
Format: functional
Endpoint Label: MIC

Value lookup for MIC; key = Cc1[nH]c(C(=O)Nc2ccc(-c3noc(=O)[nH]3)cc2N2CCN(c3ccccc3)CC2)c(Cl)c1Cl
> 64 µg/mL

New cases:
Value lookup for MIC; key = Cc1[nH]c(C(=O)Nc2ccc(-c3noc(=O)[nH]3)cc2N2CCC(N)CC2)c(Cl)c1Cl.Cl
64 µg/mL

Value lookup for MIC; key = Cc1[nH]c(C(=O)Nc2ccc(-c3noc(=O)[nH]3)cc2NC2CCN(C(=O)OC(C)(C)C)CC2)c(Cl)c1Cl
> 64 µg/mL

Value lookup for MIC; key = Cc1[nH]c(C(=O)Nc2ccc(-c3noc(=O)[nH]3)cc2N2CCC(NC(=O)OC(C)(C)C)CC2)c(Cl)c1Cl
> 64 µg/mL

Value lookup for MIC; key = Cc1[nH]c(C(=O)Nc2ccc(-c3noc(=O)[nH]3)cc2N2CCCC(N)C2)c(Cl)c1Cl.Cl (stereo unspecified)
16 µg/mL

Value lookup for MIC; key = Cc1[nH]c(C(=O)Nc2ccc(-c3noc(=O)[nH]3)cc2NC2CCNCC2)c(Cl)c1Cl.Cl
> 64 µg/mL

Value lookup for MIC; key = Cc1[nH]c(C(=O)Nc2ccc(-n3nn[nH]c3=O)cc2N2CCN(c3ccccc3)CC2)c(Cl)c1Cl
> 32 µg/mL

Value lookup for MIC; key = Cc1[nH]c(C(=O)Nc2ccc(-c3noc(=O)[nH]3)cc2N2CCN(C(=O)OC(C)(C)C)CC2)c(Cl)c1Cl
> 64 µg/mL

====

System: Escherichia coli
Method Description: Inhibition of Escherichia coli DNA topoisomerase-IV assessed as residual activity at 10 uM by relaxation plate assay relative to control
Endpoint Label: Activity (%)
Provide the reading as a plain figure in %.

Value lookup for Activity; key = Cc1[nH]c(C(=O)Nc2ccc(-n3nn[nH]c3=O)cc2N2CC[C@H](NC(=O)OC(C)(C)C)C2)c(Cl)c1Cl
72

Value lookup for Activity; key = Cc1[nH]c(C(=O)Nc2ccc(-n3nn[nH]c3=O)cc2N2Cc3ccccc3C2)c(Cl)c1Cl
105

Value lookup for Activity; key = Cc1[nH]c(C(=O)Nc2ccc(-n3nn[nH]c3=O)cc2N2CC[C@H](N)C2)c(Cl)c1Cl.Cl
26

Next, consider the following molecule.
Value lookup for Activity; key = Cc1[nH]c(C(=O)Nc2ccc(-c3noc(=O)[nH]3)cc2N2CCOCC2)c(Cl)c1Cl
76

====

Tested on: Enterobacter cloacae
Method Description: Antibacterial activity against Enterobacter cloacae subsp. cloacae ATCC 13047 assessed as inhibition of bacterial growth by broth microdilution method
Format: functional
Documented MIC across a set of compounds

Example entries begin here.
Give MIC (Enterobacter cloacae) of the following compound: Cc1[nH]c(C(=O)Nc2ccc(-c3noc(=O)[nH]3)cc2N2CCC(N)CC2)c(Cl)c1Cl.Cl
> 64 µg/mL

Give MIC (Enterobacter cloacae) of the following compound: Cc1[nH]c(C(=O)Nc2ccc(-n3nn[nH]c3=O)cc2N2CC[C@H](N)C2)c(Cl)c1Cl.Cl
> 32 µg/mL

Give MIC (Enterobacter cloacae) of the following compound: Cc1[nH]c(C(=O)Nc2ccc(-c3noc(=O)[nH]3)cc2N2CCCC2)c(Cl)c1Cl
> 64 µg/mL

Give MIC (Enterobacter cloacae) of the following compound: Cc1[nH]c(C(=O)Nc2ccc(-c3noc(=O)[nH]3)cc2NC2CCNCC2)c(Cl)c1Cl.Cl
> 64 µg/mL

Give MIC (Enterobacter cloacae) of the following compound: Cc1[nH]c(C(=O)Nc2ccc(-n3nn[nH]c3=O)cc2N2CCC(N)CC2)c(Cl)c1Cl.Cl
> 32 µg/mL

Give MIC (Enterobacter cloacae) of the following compound: Cc1[nH]c(C(=O)Nc2ccc(-n3nn[nH]c3=O)cc2N2Cc3ccccc3C2)c(Cl)c1Cl
> 64 µg/mL

New cases:
Give MIC (Enterobacter cloacae) of the following compound: Cc1[nH]c(C(=O)Nc2ccc(-c3noc(=O)[nH]3)cc2N2CCN(C(=O)OC(C)(C)C)CC2)c(Cl)c1Cl
> 64 µg/mL

Give MIC (Enterobacter cloacae) of the following compound: Cc1[nH]c(C(=O)Nc2ccc(-c3noc(=O)[nH]3)cc2N2CCCC(CN)C2)c(Cl)c1Cl.Cl (centres undefined)
> 64 µg/mL

Give MIC (Enterobacter cloacae) of the following compound: Cc1[nH]c(C(=O)Nc2ccc(-c3nnn[nH]3)cc2N2CCOCC2)c(Cl)c1Cl
> 64 µg/mL

====

Test system: Staphylococcus aureus
Method Description: Antibacterial activity against Staphylococcus aureus ATCC 29213 assessed as inhibition of bacterial growth by broth microdilution method
Assay type: functional
Endpoint Label: MIC

Example entries begin here.
Value lookup for MIC; key = Cc1[nH]c(C(=O)Nc2ccc(-c3noc(=O)[nH]3)cc2N2CCCC2)c(Cl)c1Cl
> 64 µg/mL

Value lookup for MIC; key = Cc1[nH]c(C(=O)Nc2ccc(-c3noc(=O)[nH]3)cc2N2CCN(C(=O)OC(C)(C)C)CC2)c(Cl)c1Cl
> 64 µg/mL

Value lookup for MIC; key = Cc1[nH]c(C(=O)Nc2ccc(-c3noc(=O)[nH]3)cc2NC2CCNCC2)c(Cl)c1Cl.Cl
> 64 µg/mL

Value lookup for MIC; key = Cc1[nH]c(C(=O)Nc2ccc(-n3nn[nH]c3=O)cc2N2CCC(N)CC2)c(Cl)c1Cl.Cl
> 32 µg/mL

Value lookup for MIC; key = Cc1[nH]c(C(=O)Nc2ccc(-c3noc(=O)[nH]3)cc2N2CCCC(N)C2)c(Cl)c1Cl.Cl (stereo not drawn)
> 64 µg/mL

Value lookup for MIC; key = Cc1[nH]c(C(=O)Nc2ccc(-c3nnn[nH]3)cc2N2CCCC(CN)C2)c(Cl)c1Cl.Cl (stereo not drawn)
16 µg/mL

Value lookup for MIC; key = Cc1[nH]c(C(=O)Nc2ccc(-c3noc(=O)[nH]3)cc2N2CCNCC2)c(Cl)c1Cl.Cl
> 64 µg/mL

Next, consider the following molecule.
Value lookup for MIC; key = Cc1[nH]c(C(=O)Nc2ccc(-c3noc(=O)[nH]3)cc2N2CCC(N)CC2)c(Cl)c1Cl.Cl
64 µg/mL

====

Test system: Enterobacter cloacae
Method Description: Antibacterial activity against Enterobacter cloacae subsp. cloacae ATCC 13047 assessed as inhibition of bacterial growth by broth microdilution method
Assay type: functional
Documented MIC across a set of compounds

Value lookup for MIC; key = Cc1[nH]c(C(=O)Nc2ccc(-c3noc(=O)[nH]3)cc2N2CCCC(N)C2)c(Cl)c1Cl.Cl (centres undefined)
> 64 µg/mL

Value lookup for MIC; key = Cc1[nH]c(C(=O)Nc2ccc(-c3noc(=O)[nH]3)cc2N2CCNCC2)c(Cl)c1Cl.Cl
> 64 µg/mL

Value lookup for MIC; key = Cc1[nH]c(C(=O)Nc2ccc(-n3nn[nH]c3=O)cc2N2CCN(c3ccccc3)CC2)c(Cl)c1Cl
> 32 µg/mL

Value lookup for MIC; key = Cc1[nH]c(C(=O)Nc2ccc(-c3noc(=O)[nH]3)cc2N2CCN(c3ccccc3)CC2)c(Cl)c1Cl
> 64 µg/mL

====

System: Enterobacter cloacae
Method Description: Antibacterial activity against Enterobacter cloacae subsp. cloacae ATCC 13047 assessed as inhibition of bacterial growth by broth microdilution method
Type: functional
Documented MIC across a set of compounds

Value lookup for MIC; key = Cc1[nH]c(C(=O)Nc2ccc(-c3noc(=O)[nH]3)cc2N2CCC(NC(=O)OC(C)(C)C)CC2)c(Cl)c1Cl
> 64 µg/mL

New cases:
Value lookup for MIC; key = Cc1[nH]c(C(=O)Nc2ccc(-c3noc(=O)[nH]3)cc2NC2CCN(C(=O)OC(C)(C)C)CC2)c(Cl)c1Cl
> 64 µg/mL

Value lookup for MIC; key = Cc1[nH]c(C(=O)Nc2ccc(-c3nnn[nH]3)cc2N2CCCC(CN)C2)c(Cl)c1Cl.Cl (stereo not drawn)
> 64 µg/mL

====

Method Description: Metabolic stability in mouse liver microsomes assessed as half life at 1 uM preincubated for 10 mins followed by NADPH addition and measured after 5 to 60 mins by LC-MS/MS analysis
Assay type: ADME, Microsome
Measurement Context: time 15-70 min
Documented half-life at 1 µM across a set of molecules
Provide the reading as a plain figure in h.

Value lookup for half-life at 1 µM; key = C[C@]12CC[C@H]3[C@@H](CCC4=CC(=O)CC[C@@]43C)[C@@H]1CC[C@@H]2O
0.137

Value lookup for half-life at 1 µM; key = O=C(O)Cc1ccccc1Nc1c(Cl)cccc1Cl
0.813

Next, consider the following molecule.
Value lookup for half-life at 1 µM; key = Cc1[nH]c(C(=O)Nc2ccc(-c3noc(=O)[nH]3)cc2N2CCCC2)c(Cl)c1Cl
2.1

====

Method Description: Metabolic stability in human liver microsomes assessed as intrinsic clearance at 1 uM preincubated for 10 mins followed by NADPH addition and measured after 5 to 60 mins by LC-MS/MS analysis
Assay type: ADME, Microsome
Measurement Context: time 15-70 min, read-out: CLH
Documented microsomal CLint at 1 µM across a set of compounds
Provide the reading as a plain figure in µL/min/mg.

Value lookup for microsomal CLint at 1 µM; key = Cc1[nH]c(C(=O)Nc2ccc(-c3noc(=O)[nH]3)cc2N2CCN(C(=O)OC(C)(C)C)CC2)c(Cl)c1Cl
18.2

Value lookup for microsomal CLint at 1 µM; key = Cc1[nH]c(C(=O)Nc2ccc(-c3noc(=O)[nH]3)cc2N2CCCC2)c(Cl)c1Cl
17.6

Value lookup for microsomal CLint at 1 µM; key = Cc1[nH]c(C(=O)Nc2ccc(-n3nn[nH]c3=O)cc2N2Cc3ccccc3C2)c(Cl)c1Cl
17.3

Value lookup for microsomal CLint at 1 µM; key = C[C@]12CC[C@H]3[C@@H](CCC4=CC(=O)CC[C@@]43C)[C@@H]1CC[C@@H]2O [TESTOSTERONE]
60.9

New cases:
Value lookup for microsomal CLint at 1 µM; key = O=C(O)Cc1ccccc1Nc1c(Cl)cccc1Cl [DICLOFENAC]
238
